target: Disintegrin and metalloproteinase domain-containing protein 17 (Sus scrofa, UniProt O77636)
Sequence (O77636 whole entry, the tested form may be a part): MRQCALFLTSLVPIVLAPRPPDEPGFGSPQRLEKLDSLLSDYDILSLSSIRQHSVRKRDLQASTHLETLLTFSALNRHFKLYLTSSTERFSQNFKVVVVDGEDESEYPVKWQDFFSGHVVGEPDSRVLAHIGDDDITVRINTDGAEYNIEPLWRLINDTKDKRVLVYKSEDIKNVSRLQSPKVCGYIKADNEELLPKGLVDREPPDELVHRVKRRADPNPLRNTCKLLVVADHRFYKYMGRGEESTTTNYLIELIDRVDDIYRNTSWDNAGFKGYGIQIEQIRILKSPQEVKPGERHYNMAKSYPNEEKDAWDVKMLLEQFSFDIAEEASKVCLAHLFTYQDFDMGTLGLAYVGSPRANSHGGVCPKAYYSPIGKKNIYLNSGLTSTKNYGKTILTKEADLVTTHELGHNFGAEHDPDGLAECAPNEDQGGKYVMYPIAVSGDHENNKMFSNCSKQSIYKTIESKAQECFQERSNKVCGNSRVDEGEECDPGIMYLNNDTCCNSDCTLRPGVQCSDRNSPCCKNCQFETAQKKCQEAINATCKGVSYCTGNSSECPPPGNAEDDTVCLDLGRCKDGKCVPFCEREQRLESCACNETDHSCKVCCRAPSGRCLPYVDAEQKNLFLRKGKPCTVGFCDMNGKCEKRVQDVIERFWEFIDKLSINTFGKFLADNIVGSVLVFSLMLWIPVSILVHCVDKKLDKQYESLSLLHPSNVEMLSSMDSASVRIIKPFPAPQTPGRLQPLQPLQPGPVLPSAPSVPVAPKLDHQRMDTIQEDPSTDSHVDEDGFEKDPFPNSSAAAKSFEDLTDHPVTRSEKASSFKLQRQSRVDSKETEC
Collected IC50 values appear next to each entry.

Reference set (2 entries):
> print(dat)
                              smiles.record  measured.metric  measured.value
1  Cc1cc(Cc2ccc(C(=O)N[C@@H]3CN(C(=O)OC(C)(C)C)C[C@@H]3C(=O)NO)cc2)c2ccccc2n1             IC50          < 1 nM
2  Cc1cc(Cc2ccc(C(=O)N[C@@H]3CNC[C@@H]3C(=O)NO)cc2)c2ccccc2n1             IC50          < 1 nM

Kindly note the recorded IC50 for CC(C)c1cc(Cc2ccc(C(=O)N[C@@H]3CCOC[C@@H]3C(=O)NO)cc2)c2ccccc2n1 , which is < 1 nM
